Source listed as patent US20030068675.

Target: T1, ZFP SBS#975 (synthetic)
T1 chain: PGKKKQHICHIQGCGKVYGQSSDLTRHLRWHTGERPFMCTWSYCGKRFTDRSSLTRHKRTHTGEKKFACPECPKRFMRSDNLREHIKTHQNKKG
Test: EMSA
Details: tags: MBP fusion
Reported property: Kd (nM)
Express your answer in nM, writing the number without its unit.

Problem: Need Kd, item CAGGCCGCT (dsDNA) DNA 1: CAGGCCGCT DNA 2: AGCGGCCTG
Result: 1.1
